# measured.target: Retinoic acid receptor RXR-alpha (Homo sapiens, UniProt P19793)
# Sequence (P19793 whole entry): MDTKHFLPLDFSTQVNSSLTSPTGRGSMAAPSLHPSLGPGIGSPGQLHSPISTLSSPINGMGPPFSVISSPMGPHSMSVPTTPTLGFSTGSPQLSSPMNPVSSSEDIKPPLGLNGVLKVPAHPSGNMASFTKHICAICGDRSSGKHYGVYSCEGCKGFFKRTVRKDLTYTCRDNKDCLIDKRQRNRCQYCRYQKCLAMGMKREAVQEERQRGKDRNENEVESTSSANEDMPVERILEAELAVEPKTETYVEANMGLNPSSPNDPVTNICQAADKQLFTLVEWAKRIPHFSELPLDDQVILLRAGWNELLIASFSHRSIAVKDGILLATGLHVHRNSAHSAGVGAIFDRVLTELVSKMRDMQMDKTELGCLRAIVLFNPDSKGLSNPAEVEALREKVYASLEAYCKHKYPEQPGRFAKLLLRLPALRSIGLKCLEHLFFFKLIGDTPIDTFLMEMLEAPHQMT
# assay.details: Agonist activity at RXRalpha transfected in […] COS1 cells after 18 hrs by luciferase reporter gene transactivation assay
Hi all, reminder that labels come from EC50, split as range A (below 200 nM), range B (200 nM to below 300 nM), range C (300 nM or more)

### Prompt For CCN(c1ccc(C(C)C)c(OCCc2ccccc2)c1)c1ccc(C(=O)O)cn1 , which EC50 bin applies?
### Response range C

### Prompt Into which category would you place CCN(c1ccc(C(C)C)c(OCc2ccccc2)c1)c1ccc(C(=O)O)cn1 ?
### Response range A

### Prompt Sort CCCCCCOc1cc(N(CC)c2ccc(C(=O)O)cn2)ccc1C(C)C into one of the categories.
### Response range B

### Prompt Category lookup for the compound C=C(C)COc1cc(N(CC)c2ccc(C(=O)O)cn2)ccc1C(C)C
### Response range A

### Prompt Lab log: CCN(c1ccc(C(C)C)c(OCC2CC2)c1)c1ccc(C(=O)O)cn1 — assign EC50 category
### Response range B

### Prompt Please classify: CCCOc1cc(N(CC)c2ccc(C(=O)O)cn2)ccc1C(C)C
### Response range C

### Prompt Form: Item = CCN(c1ccc(C(C)C)c(OCCCc2ccccc2)c1)c1ccc(C(=O)O)cn1 ; Class = ?
### Response range C

### Prompt Bin this entry: CCN(c1ccc(C(C)C)c(OC(C)C)c1)c1ccc(C(=O)O)cn1
### Response range A

### Prompt Hello team, could you let me know which band the following compound falls into: CCCCCOc1cc(N(CC)c2ccc(C(=O)O)cn2)ccc1C(C)C
### Response range A

### Prompt Lab note: which band did CCN(c1ccc(C(C)C)c(OCC(F)(F)F)c1)c1ccc(C(=O)O)cn1 land in?
### Response range A

### Prompt Entry CCN(c1ccc(C(C)C)c(OCC=C(C)C)c1)c1ccc(C(=O)O)cn1 belongs to which category?
### Response range A

### Prompt # bin lookup: classify CCCCOc1cc(N(CC)c2ccc(C(=O)O)cn2)ccc1C(C)C by its EC50
### Response range A
